Entries annotated with measured inhibition of SARS-CoV-2 cytopathic effect
test system: Vero E6 infected with SARS-CoV-2; experiment: inhibition of SARS-CoV-2 cytopathic effect; higher = more antiviral protection, active = above 15; conditions: 833.33 nM; 48 h
parameter: inhibition of SARS-CoV-2 cytopathic effect (%)

>>> observed_value("O=C(O)C1CN(Cc2ccc(-c3nc4cc(Cc5ccccc5F)ccc4s3)c(F)c2)C1")
0.03
>>> observed_value("CC(C)(C)C(=O)CN1C(=O)[C@H](NC(=O)Nc2cccc(C(=O)O)c2)CN(C2CCCCC2)c2ccccc21 [nastorazepide]")
0.71
>>> observed_value("C[C@@H](N)Cc1c[nH]c2ccc(O)cc12 [alpha-methylserotonin]")
-0.05
>>> observed_value("Clc1ccccc1CNC[C@H]1CC[C@H](CNCc2ccccc2Cl)CC1")
-3.17
>>> observed_value("C[N+](C)(C)CC(O)CC(=O)[O-] (centres undefined) [carnitine-(D/L)]")
3.52
>>> observed_value("CC[C@@H](C)Nc1cc(C(=O)N[C@H]2C[C@H]3CC[C@@H](C2)N3c2ccc(C(=O)C3CC3)cn2)c(C)cc1C(N)=O")
2.73
>>> observed_value("O=C1CN(/N=C/c2ccc(-c3ccc([N+](=O)[O-])cc3)o2)C(=O)N1 [dantrolene]")
-0.88
>>> observed_value("Cc1c(O)cccc1C(=O)N[C@@H](CSc1ccccc1)[C@H](O)CN1C[C@H]2CCCC[C@H]2C[C@H]1C(=O)NC(C)(C)C [nelfinavir]")
3.72
>>> observed_value("CC(=O)Oc1cccc(C(=O)O)c1OC(C)=O [dipyrocetyl]")
-0.15
>>> observed_value("CC(=O)Nc1ccc(OCC(O)CNC(C)C)cc1 (centres undefined) [practolol]")
2.84
>>> observed_value("CCC(=O)O[C@]1(C(=O)CO)CC[C@H]2[C@@H]3CCC4=CC(=O)CC[C@]4(C)[C@H]3CC[C@@]21C")
1.21
>>> observed_value("CN(C)CCOC1=Cc2ccccc2Sc2ccc(Cl)cc21 [zotepine]")
0.16
>>> observed_value("CN1CCN(c2ccc3[nH]c(-c4ccc5[nH]c(-c6ccc(O)cc6)nc5c4)nc3c2)CC1 [pibenzimol]")
2.62
>>> observed_value("CC1(C)Oc2ccc(C#N)cc2[C@@H](N2CCCC2=O)[C@@H]1O [levcromakalim]")
1.22
